The following binders are listed with their measured NanoBRET Abs IC50 (bin >1.5 uM) values.
Experimental Target: beta-catenin (human)
Sequence (B6V8E6 146-665 limits assumed): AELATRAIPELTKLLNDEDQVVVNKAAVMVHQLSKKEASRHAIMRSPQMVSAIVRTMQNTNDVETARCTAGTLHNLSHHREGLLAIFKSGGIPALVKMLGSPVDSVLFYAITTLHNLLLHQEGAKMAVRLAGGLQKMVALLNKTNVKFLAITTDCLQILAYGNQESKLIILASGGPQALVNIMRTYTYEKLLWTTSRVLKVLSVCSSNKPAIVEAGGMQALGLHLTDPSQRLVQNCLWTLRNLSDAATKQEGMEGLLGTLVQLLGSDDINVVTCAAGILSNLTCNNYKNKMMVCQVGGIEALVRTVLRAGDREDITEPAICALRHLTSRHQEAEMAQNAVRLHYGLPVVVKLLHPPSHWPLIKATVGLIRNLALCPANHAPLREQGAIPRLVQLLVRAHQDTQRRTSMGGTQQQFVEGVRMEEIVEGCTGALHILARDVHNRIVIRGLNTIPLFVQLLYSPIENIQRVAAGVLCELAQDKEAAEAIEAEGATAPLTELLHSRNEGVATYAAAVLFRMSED
Protocol Summary: cell-based or functional assay
*1 amine or outer side, *2 acyl side, *3 side chain or, on linkers, in order; H or OH if unused. Bridges are numbered along the chain shown (N, C = ends). Primed or numbered codes have the meaning given here. [ ]: non-standard residue; d: D form. B5(4) = 2-amino-2-(pent-4-en-1-yl)hept-6-enoic acid, stapled through each of its two olefin groups with other olefin-containing amino acid residues, O=C(C(CCCC=[*:3])(CCCC=[*:4])N[*:1])[*:2]; PyrS2″ = (S)-3-amino-1-((pent-4-en-1-yloxy)carbonyl)pyrrolidine-3-carboxylic acid (olefin stapling residue), C=CCCCOC(=O)N1CC[C@@](N[*:1])(C(=O)[*:2])C1; PyrS2(3) = (S)-3-amino-1-((pent-4-en-1-yloxy)carbonyl)pyrrolidine-3-carboxylic acid, olefin residue, C=CCCCOC(=O)N1CC[C@@](N[*:1])(C(=O)[*:2])C1; PyrS2(5) = (S)-3-amino-1-((pent-4-en-1-yloxy)carbonyl)pyrrolidine-3-carboxylic acid, C=CCCCOC(=O)N1CC[C@@](N[*:1])(C(=O)[*:2])C1; B5(5) = 2-amino-2-(pent-4-en-1-yl)hept-6-enoic acid (two olefin arms), C=CCCCC(CCCC=C)(N[*:1])C(=O)[*:2]; B5(3) = 2-amino-2-(pent-4-en-1-yl)hept-6-enoic acid, two olefin arms, C=CCCCC(CCCC=C)(N[*:1])C(=O)[*:2]; TriAzLys″ = azidolysine residue closed into triazole staple, O=C([C@H](CCCCn1cc([*:3])nn1)N[*:1])[*:2]; 2F3MeF″ = aromatic residue, Cc1cccc(C[C@H](N[*:1])C(=O)[*:2])c1F; Phe(3-COOH) = N[C@@H](Cc1cccc(C(=O)O)c1)C(=O)O; 2F3MeF = Cc1cccc(C[C@H](N[*:1])C(=O)[*:2])c1F; Bta = N[C@@H](Cc1csc2ccccc12)C(=O)O; αAllylPro = C=CC[C@@]1(C(=O)O)CCCN1; tBuAla = CC(C)(C)C[C@H](N)C(=O)O; 3Thi = N[C@@H](Cc1ccsc1)C(=O)O; GlnR = not defined here; sAla = not defined here; PL3 = not defined here

Binder: Ac-[PL3]D[tBuAla][B5(4)]D[Phe(3-COOH)]AAF[TriAzLys″][PyrS2″][2F3MeF][Bta][sAla]-NH2 (triazole 10-14; not fully specified (bridges); printed as Ac-PL3-Asp-Npg-B5-Asp-3COOHF-Ala-Ala-Phe-TriAzLys*3-PyrS2-2F3MeF-BztA-sAla*3-NH2; reading uncertain) [I-21]
Measured Property: NanoBRET Abs IC50 (bin >1.5 uM)
Data Value: < 3000 nM
//
Binder: Ac-[αAllylPro]D[tBuAla][B5(5)]D[Phe(3-COOH)]AAFK[PyrS2(5)][3Thi][Bta][GlnR]A-NH2 (bridge 10-14; reading uncertain; also: PL3/B5/PyrS2 staple links not placed, printed as Ac-PL3-Asp-Npg-B5-Asp-3COOHF-Ala-Ala-Phe-Lys*3-PyrS2-3Thi-BztA-GlnR*3-Ala-NH2) [I-42]
Measured Property: NanoBRET Abs IC50 (bin >1.5 uM)
Data Value: < 3000 nM

API: the following record is the query input.
Exercise: Give the measured NanoBRET Abs IC50 (bin >1.5 uM) for Ac-[αAllylPro]D[tBuAla][B5(3)]D[Phe(3-COOH)]AAFK[PyrS2(3)][2F3MeF″][Bta][GlnR]-NH2 (bridge 10-14; not fully specified (bridges); printed as Ac-PL3-Asp-Npg-B5-Asp-3COOHF-Ala-Ala-Phe-Lys*3-PyrS2-2F3MeF-BztA-GlnR*3-NH2; reading uncertain) [I-55]
Solution: < 3000 nM
